This listing pairs compounds with measured cytochrome c release ratio.
# PROTOCOL DETAILS: inhibitors of mitochondrial cytochrome c release, biochemical, purified mitochondria (AID 1603);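 also: mouse liver mitochondria challenged with calcium chloride; signal normalized to the plate average as 100%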
# CONDITION LABEL: stronger effect = lower value

Reference set (2 entries):
c1ccc2c(c1)sc1ccccc12 = 0.98
COc1ccc(C(=O)N2CCCC2=O)cc1 = 0.98

We now examine a further compound.
Dear colleague, I am looking for the recorded cytochrome c release ratio of the following compound: O=C1CC2OCC=C3CN4CC[C@]56c7ccccc7N1C5[C@H]2[C@H]3CC46 (stereo partly drawn) 1

----------
# ASSAYED TARGET: L-lactate dehydrogenase (Plasmodium falciparum (isolate CDC / Honduras)) (UniProt Q27743)
# Sequence (Q27743 whole entry, looked up): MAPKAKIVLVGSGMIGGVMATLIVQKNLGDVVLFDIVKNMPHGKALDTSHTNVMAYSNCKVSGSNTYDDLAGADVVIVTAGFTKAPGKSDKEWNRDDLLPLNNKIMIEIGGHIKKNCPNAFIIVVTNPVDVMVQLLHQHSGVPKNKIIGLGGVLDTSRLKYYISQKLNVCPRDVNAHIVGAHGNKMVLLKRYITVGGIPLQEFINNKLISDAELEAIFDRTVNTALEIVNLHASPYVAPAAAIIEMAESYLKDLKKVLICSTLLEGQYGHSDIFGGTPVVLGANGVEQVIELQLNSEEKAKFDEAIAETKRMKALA
# PROTOCOL DETAILS: PfLDH activity inhibition – cell lysate, 3D7 strain, counter-screen for P. falciparum growth inhibition project (AID 2304);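 also: 0% = vehicle and 100% = reference inhibitor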
# CONDITION LABEL: P. falciparum 3D7 crude extract, LDH APAD/NBT absorbance; at 2 µM; stronger effect = higher value
Reported inhibition is given for each of the following compounds.
Please give a number only; it is taken to be in %.

Recorded inhibition, per entry:
CCN(Cc1ccccc1)CC(O)c1ccc(Cl)c(Cl)c1 (configuration not stated) = 1
O=C(NC1CCC(CN2CCC(c3c[nH]c4ccccc34)CC2)CC1)c1cn(Cc2ccccc2)c2ccccc12 (configuration not stated) = -3
CN(C)CCCn1cc(C(=O)OC2C[C@H]3CC[C@@H](C2)N3C)c2cc(-c3ccccc3)ccc21 (some centres not stated) = 0
CN(CC(=O)N1CCN(S(=O)(=O)c2cccc(Cl)c2)CC1CN1CCCC1)c1ccc(Cl)c(Cl)c1 (configuration not stated) = -1
CC[C@@]1(O)C(=O)OCc2c1cc1n(c2=O)Cc2c-1nc1cc3c(cc1c2CN1CCOCC1)OCO3 = 4

inhibition for `CC(=O)N(Cc1ccc(-c2ccc(CNCCc3ccccc3)cc2)cc1)C1CCN(Cc2ccccc2)CC1` ? -2

inhibition lookup needed for Oc1ccccc1CNCC(O)c1cc(C(F)(F)F)cc(C(F)(F)F)c1 (configuration not stated) , thanks. 4
